Test system: Vero E6 infected with SARS-CoV-2
Experiment: SARS-CoV-2 infection rate relative to infected DMSO; higher = more infection, active = 60 or less
Conditions: 24 h
MEASURED_METRIC: SARS-CoV-2 infection rate (%)

compound="CC(C)(S)C(=O)N[C@@H](CS)C(=O)O [bucillamine] (10 µM)" measured_metric="SARS-CoV-2 infection rate" test_value=107
compound="Oc1ccc(CC2NCCc3cc(O)c(O)cc32)cc1 (stereo not drawn) [higenamine] (0.833333 µM)" measured_metric="SARS-CoV-2 infection rate" test_value=103
compound="C[C@@]1(CO)[C@H](O)CC[C@@]2(C)[C@H]1CC[C@H]1C[C@@H]3C[C@@]12CC[C@]3(O)CO [aphidicolin] (0.833333 µM)" measured_metric="SARS-CoV-2 infection rate" test_value=106
compound="CN[C@@H]1[C@@H](O)[C@@H](O[C@@H]2[C@@H](O)[C@H](O[C@H]3OC(CN)=CC[C@H]3N)[C@@H](N)C[C@H]2N)OC[C@]1(C)O [Sisomicin (sulfate)] (10 µM)" measured_metric="SARS-CoV-2 infection rate" test_value=102
compound="Cc1ccc(OC[C@@H](O)[C@H](C)NC(C)C)c2c1CCC2 (racemic) (10 µM)" measured_metric="SARS-CoV-2 infection rate" test_value=110
compound="O=C(O)c1cc(O)c2c(c1)C(=O)c1cccc(O)c1C2=O [rhein] (10 µM)" measured_metric="SARS-CoV-2 infection rate" test_value=99.5
compound="CC[N+](CC)(CC(=O)Nc1c(C)cccc1C)Cc1ccccc1 [denatonium-benzoate] (10 µM)" measured_metric="SARS-CoV-2 infection rate" test_value=116
compound="COc1cc2c(cc1OC)[C@@H]1Cc3ccc(OC)c(OC)c3CN1CC2 [rotundine] (10 µM)" measured_metric="SARS-CoV-2 infection rate" test_value=110
compound="OCc1ccccc1O[C@@H]1O[C@H](CO)[C@@H](O)[C@H](O)[C@H]1O [salicin] (10 µM)" measured_metric="SARS-CoV-2 infection rate" test_value=99
compound="CC(=O)N[C@@H](CC(=O)O)C(=O)N[C@@H](CCC(=O)O)C(=O)O [spaglumic-acid] (10 µM)" measured_metric="SARS-CoV-2 infection rate" test_value=88.5
compound="CC(C)(C)c1cc(C(C)(C)C)c2c(c1)C(O)(C(F)(F)F)C(=O)O2 (racemic) (10 µM)" measured_metric="SARS-CoV-2 infection rate" test_value=95.5
compound="Oc1ccc2[nH]cc(C3=CCNCC3)c2n1 (10 µM)" measured_metric="SARS-CoV-2 infection rate" test_value=90
compound="NC(=O)[C@@H]1CC[C@@H]2CN1C(=O)N2OS(=O)(=O)O [avibactam] (10 µM)" measured_metric="SARS-CoV-2 infection rate" test_value=108
